# System: KP-3
# assay_explanation: cell line proliferation assay (Cell Titer Glo)
# Assay type: cell-based, human
# measurement_context: Homo sapiens, 120 hours, Cell Titer Glo, read-out: LGK974 IC50s in cell line proliferation assay
pIC50: −log10 of the molar value.
reported_endpoint: pIC50

Req: # input compound: Cc1cc(-c2ncc(CC(=O)Nc3ccc(-c4cnccn4)cn3)cc2C)ccn1 [LGK974] ; wanted: its pIC50
Resp: < 5.70

* * *

# Tested on: Panc 03.27
# assay_explanation: cell line proliferation assay (Cell Titer Glo)
# Format: cell-based, human
# measurement_context: Homo sapiens, PANC-03-27; Panc 03.27; 120 hours; Cell Titer Glo; read-out: LGK974 IC50s in cell line proliferation assay
reported_endpoint: IC50

Req: Field request: IC50 | item: Cc1cc(-c2ncc(CC(=O)Nc3ccc(-c4cnccn4)cn3)cc2C)ccn1 [LGK974]
Resp: > 2 µM

* * *

# Tested on: PA-TU-8902
# assay_explanation: cell line proliferation assay (Cell Titer Glo)
# Type: cell-based, human
# measurement_context: Homo sapiens, PaTu 8902, 120 hours, Cell Titer Glo, read-out: LGK974 IC50s in cell line proliferation assay
pIC50: −log10 of the molar value.
reported_endpoint: pIC50

Req: Look up pIC50: Cc1cc(-c2ncc(CC(=O)Nc3ccc(-c4cnccn4)cn3)cc2C)ccn1
Resp: < 5.70

* * *

# Tested on: TCC-PAN2
# assay_explanation: cell line proliferation assay (Cell Titer Glo)
# Type: cell-based, human
# measurement_context: 120 hours, Cell Titer Glo, read-out: LGK974 IC50s in cell line proliferation assay
reported_endpoint: IC50

Req: Tell me the measured IC50 of Cc1cc(-c2ncc(CC(=O)Nc3ccc(-c4cnccn4)cn3)cc2C)ccn1 [LGK974] , please.
Resp: > 2 µM

* * *

# Tested on: TCC-PAN2
# assay_explanation: cell line proliferation assay (Cell Titer Glo)
# Assay type: cell-based, human
# measurement_context: Homo sapiens, 120 h, Cell Titer Glo, read-out: LGK974 IC50s in cell line proliferation assay
pIC50: −log10 of the molar value.
reported_endpoint: pIC50

Req: For TCC-PAN2, provide pIC50 of Cc1cc(-c2ncc(CC(=O)Nc3ccc(-c4cnccn4)cn3)cc2C)ccn1 [LGK974] please.
Resp: < 5.77

* * *

# Tested on: PA-TU-8988S
# assay_explanation: cell line proliferation assay (Cell Titer Glo)
# Assay type: cell-based, human
# measurement_context: Homo sapiens, PaTuÂ 8988s, 120 hours, Cell Titer Glo, read-out: LGK974 IC50s in cell line proliferation assay
reported_endpoint: IC50 (nM)
Response body: numeric value in nM, unit text excluded.

Req: Quick check: IC50 on PA-TU-8988S, item Cc1cc(-c2ncc(CC(=O)Nc3ccc(-c4cnccn4)cn3)cc2C)ccn1 [LGK974] ?
Resp: 11.6

* * *

# System: PSN-1
# assay_explanation: cell line proliferation assay (Cell Titer Glo)
# Type: cell-based, human
# measurement_context: Homo sapiens, PSN1, 120 hours, Cell Titer Glo, read-out: LGK974 IC50s in cell line proliferation assay
reported_endpoint: IC50

Req: Item Cc1cc(-c2ncc(CC(=O)Nc3ccc(-c4cnccn4)cn3)cc2C)ccn1 has what recorded IC50?
Resp: > 2000 nM

* * *

# System: PK-59
# assay_explanation: cell line proliferation assay (Cell Titer Glo)
# Type: cell-based, human
# measurement_context: Homo sapiens, 120 hours, Cell Titer Glo, read-out: LGK974 IC50s in cell line proliferation assay
pIC50: −log10 of the molar value.
reported_endpoint: pIC50

Req: Which measured pIC50 value corresponds to Cc1cc(-c2ncc(CC(=O)Nc3ccc(-c4cnccn4)cn3)cc2C)ccn1 [LGK974] ?
Resp: < 5.70

* * *

# Test system: KP-1N
# assay_explanation: cell line proliferation assay (Cell Titer Glo)
# Type: cell-based, human
# measurement_context: Homo sapiens, 120 hours, Cell Titer Glo, read-out: LGK974 IC50s in cell line proliferation assay
reported_endpoint: IC50

Req: Sample Cc1cc(-c2ncc(CC(=O)Nc3ccc(-c4cnccn4)cn3)cc2C)ccn1 — what was its IC50?
Resp: > 2 µM

* * *

# Tested on: PA-TU-8988T
# assay_explanation: cell line proliferation assay (Cell Titer Glo)
# Assay type: cell-based, human
# measurement_context: Homo sapiens, PaTu 8988t, 120 hours, Cell Titer Glo, read-out: LGK974 IC50s in cell line proliferation assay
pIC50: −log10 of the molar value.
reported_endpoint: pIC50

Req: Consider the compound shown here: Cc1cc(-c2ncc(CC(=O)Nc3ccc(-c4cnccn4)cn3)cc2C)ccn1 What is its recorded pIC50?
Resp: < 5.70
